Entries annotated with measured normalized growth
Assay: chemical genetic growth profiling, strain panel (AID 1159580);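 further: tested at 20 µM; growth read once vehicle control cultures reached saturation at 30 °C; 1 = growth at the plate median or of vehicle wells; lower values mean less growth of the strain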
Details: S. cerevisiae deletion strains, growth OD, locus YLL026W, hits give low values
Screen size: about 5,500 compounds; about 2,000 (36%) were called active. Inconclusive results (about 18%) are left out. Some of the results follow.
Note: the reply should be a number with no unit written.

Input: Consider the compound CCC(=O)O[C@H]1[C@H](O[C@@H]2[C@@H](C)[C@H](O[C@H]3C[C@@](C)(OC)[C@@H](O)[C@H](C)O3)[C@@H](C)C(=O)O[C@H](CC)[C@@](C)(O)[C@H](O)[C@@H](C)C(=O)[C@H](C)C[C@@]2(C)O)O[C@H](C)C[C@@H]1N(C)C . State its measured normalized growth.
Output: 0.942

Input: Consider the compound NC(=O)C(c1ccccc1)(c1ccccc1)C1CCN(CCc2ccc3c(c2)CCO3)C1 (configuration not stated) . State its measured normalized growth.
Output: 1.02

###

Assay: chemical genetic growth profiling, strain panel (AID 1159580);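 further: tested at 20 µM; growth read once vehicle control cultures reached saturation at 30 °C; 1 = growth at the plate median or of vehicle wells; lower values mean less growth of the strain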
Settings: S. cerevisiae deletion strains, growth OD, locus YHR087W, strain rtc3, hits give low values
Screen size: about 5,500 compounds; about 2,000 (36%) were called active. Inconclusive results (about 18%) are left out. This is one part of the list.
Entries annotated with measured normalized growth
Note: the reply should be a number with no unit written.

{"columns": ["COMPOUND", "normalized growth"],
 "data": [
  ["O=C1c2cccc3c([N+](=O)[O-])ccc(c23)C(=O)N1Cc1ccco1", 0.974],
  ["COC(=O)c1sccc1OC(=O)c1c(F)cccc1F", 1.02],
  ["CCOC(=O)COc1nc(-c2cccs2)cc(C(F)(F)F)c1C#N", 0.961],
  ["CCOC(=O)c1[nH]c(Cc2[nH]c(C(=O)OCC)c(C)c2C)c(C)c1C", 1.01],
  ["COc1ccccc1N1CCN(S(=O)(=O)c2cc(C)c(Cl)cc2C)CC1", 0.959],
  ["COc1ccc(NC(=O)c2cc(C(F)(F)F)cc(C(F)(F)F)c2)cn1", 0.925]
]}

Input: Consider the compound COc1ccc(OC)c(S(=O)(=O)Nc2ccc(C#N)cc2)c1 . State its measured normalized growth.
Output: 1.01

Input: Consider the compound Cc1ccc(NC(=S)NNC(C)(C)C)cc1 . State its measured normalized growth.
Output: 1.01

Input: Consider the compound Ic1ccc(I)s1 . State its measured normalized growth.
Output: 1

Input: Consider the compound CCCS(=O)(=O)c1c(C)c(C)n(Cc2ccccc2)c1N . State its measured normalized growth.
Output: 1

Input: Consider the compound Clc1cccc(Cl)c1CSC1=NCCCN1C1CCCCC1 . State its measured normalized growth.
Output: 1.01

Input: Consider the compound CCOC(=O)c1cc(C)nc(Sc2ccccc2)c1C#N . State its measured normalized growth.
Output: 0.787

Input: Consider the compound CCO/C=C1\SC(=S)N(CCc2ccccc2)C1=O . State its measured normalized growth.
Output: 0.847

Input: Consider the compound COc1ccc(OC)c(S(=O)(=O)Oc2ccc(C#N)cc2)c1 . State its measured normalized growth.
Output: 0.968

Input: Consider the compound N[C@@H](C(=O)O)c1ccccc1 . State its measured normalized growth.
Output: 0.998

Input: Consider the compound Cc1cccc(Cn2c(C)c(C)c(S(=O)(=O)c3ccccc3)c2N)c1C . State its measured normalized growth.
Output: 1.01

Input: Consider the compound O=S(=O)(Nc1cccc2cccnc12)c1cc(Cl)c(Cl)cc1Cl . State its measured normalized growth.
Output: 0.517

Input: Consider the compound COc1ccc(CN2C(=O)CSC2c2ccccn2)cc1 (stereo unspecified) . State its measured normalized growth.
Output: 1.01

Origin of measurements: PubChem BioAssay AID1159580
